Data origin, for the record: PubChem BioAssay (NCI)

System: NCI-H460 lung
Test: NCI tumour cell line growth inhibition, 48 h
# TGI values compiled below

In the examples that follow, each entry is paired with its recorded TGI.
COc1cc(/C=C2\N=C(c3ccccc3)N(c3nc4c(OC)ccc(OC)c4s3)C2=O)ccc1O
> 100 µM
CC[C@H](C)[C@H]1O[C@]2(C=C[C@@H]1C)C[C@@H]1C[C@@H](C/C=C(\C)[C@@H](O[C@H]3C[C@H](OC)[C@@H](O[C@H]4C[C@H](OC)[C@@H](NC)[C@H](C)O4)[C@H](C)O3)[C@@H](C)/C=C/C=C3\CO[C@@H]4[C@H](O)C(C)=C[C@@H](C(=O)O1)[C@]34O)O2
3.63 µM

Next molecule, please.
Entry "c1cc2c(ncc3cscc32)s1" ; TGI = > 100 µM

* * *

# GI50 values compiled below
Test system: MDA-MB-231 breast
Assay: NCI tumour cell line growth inhibition, 48 h

In the examples that follow, each entry is paired with its recorded GI50.
O=C(/C=C\n1cnc(-c2cc(C(F)(F)F)cc(C(F)(F)F)c2)n1)NNc1cnccn1
57.7 nM
Cc1ccc(C(=O)Nc2ccc(CN3CCN(C)CC3)c(C(F)(F)F)c2)cc1C#Cc1cnc(N)c2ccccc12
519 nM
C=C(C)C1CCC2(C(=O)O)CCC3(C)C(CCC4C5(C)CCC(OC(=O)NCc6ccccc6)C(C)(C)C5CCC43C)C12 (centres undefined)
5690 nM
C=C1CC[C@@H]2[C@](C)(COC(C)=O)[C@H](OC(C)=O)CC[C@@]2(C)[C@@H]1CC(Nc1ccc(S(=O)(=O)Nc2ncccn2)cc1)C1=CCOC1=O (some centres undefined)
1950 nM

// returns GI50 for "O=C(O)[C@@H]1CCCCN1Cc1cc2cc3c(cc2c2cc(OCc4ccccc4)ccc12)OCO3" with MDA-MB-231 breast; value = 1900 nM

// returns GI50 for "O=S1(=O)N(CCNc2nccc(-c3c(-c4cccc(O)c4)nc4sccn34)n2)CCN1Cc1ccccc1" with MDA-MB-231 breast; value = 3060 nM

// returns GI50 for "COc1ccccc1Cn1cc2c(c1-c1ccccc1)CCc1cnoc1-2" with MDA-MB-231 breast; value = 3960 nM

// returns GI50 for "COc1cc2c3c(n(CCNCCCNCCn4c5c(c6cc(OC)c(OC)cc6c4=O)C(=O)c4ccccc4-5)c(=O)c2cc1OC)-c1ccccc1C3=O" with MDA-MB-231 breast; value = 178 nM

// returns GI50 for "CCc1oc2ccccc2c1C(=O)c1cc(I)c(O)c(I)c1" with MDA-MB-231 breast; value = 5640 nM

* * *

Test system: M14 melanoma
Assay: NCI tumour cell line growth inhibition, 48 h
# TGI values compiled below

Entry O=C1CCCC2(c3ccccc3)Nc3ccccc3N12 (stereo not given) ; TGI = > 100 µM

Entry COc1ccc(C2C3=C(Nc4ncnn42)c2ccccc2OC3c2ccccc2)cc1 (stereo not given) ; TGI = > 100 µM

* * *

System: MOLT-4 leukemia
Experiment: NCI tumour cell line growth inhibition, 48 h; in the data active = GI50 below about 0.43 µM; inactive = the rest
Write down one outcome, taken from active, inactive

// below: answered compounds
COc1ccc(OC)c(C(=O)c2oc3ccc(Br)cc3c2N)c1
active
Cc1ccc2c3c(c(=O)[nH]c2c1)C1(C(C#N)=C(N)O3)c2cc(Br)ccc2-c2ccc(Br)cc21
inactive
O=S1(=O)N(CCNc2nccc(-c3c(-c4cccc(O)c4)nc4sccn34)n2)CCN1Cc1ccccc1
inactive
O=C(O)[C@@H]1CCCCN1Cc1cc2cc3c(cc2c2cc(OCc4ccccc4)ccc12)OCO3
inactive

Read the next record carefully.
Record request — test call for CCCCCN(CCCCC)CC(O)c1ccc(Cl)c2ccccc12 (stereo not given)
inactive
